Biological target: ALK6/BMPR1B (Homo sapiens)
Sequence (O00238 14-502): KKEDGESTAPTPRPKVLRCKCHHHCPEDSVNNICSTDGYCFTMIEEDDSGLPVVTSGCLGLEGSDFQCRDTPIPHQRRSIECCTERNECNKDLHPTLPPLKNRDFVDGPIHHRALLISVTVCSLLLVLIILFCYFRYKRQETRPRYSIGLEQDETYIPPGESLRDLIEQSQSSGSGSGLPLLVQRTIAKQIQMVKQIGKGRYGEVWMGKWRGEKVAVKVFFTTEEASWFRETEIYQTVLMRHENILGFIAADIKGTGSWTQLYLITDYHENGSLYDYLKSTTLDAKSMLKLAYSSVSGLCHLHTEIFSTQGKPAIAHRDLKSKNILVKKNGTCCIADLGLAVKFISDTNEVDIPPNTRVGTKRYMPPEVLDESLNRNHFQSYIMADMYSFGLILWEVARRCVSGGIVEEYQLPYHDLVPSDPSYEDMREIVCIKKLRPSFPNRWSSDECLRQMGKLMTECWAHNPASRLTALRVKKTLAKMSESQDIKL
Assay: IC50 kinase assay ALK6
Format: biochemical
Conditions: read-out: IC50 ALK6/BMPR1B; ATP 10 μM
Readout label: IC50 (nM)
Numbers only here, please. The scale is nM.

Lookup: Give the measured IC50 of `c1ccc2c(-c3cnn4cc(-c5ccc(OCCN6CCCCC6)cc5)cnc34)ccnc2c1` .
Found: 2
